Measured pEC50 accompanies every entry in the list below.
# Target or system: washed human platelets (Homo sapiens, UniProt P25116)
# Sequence (P25116 42-425): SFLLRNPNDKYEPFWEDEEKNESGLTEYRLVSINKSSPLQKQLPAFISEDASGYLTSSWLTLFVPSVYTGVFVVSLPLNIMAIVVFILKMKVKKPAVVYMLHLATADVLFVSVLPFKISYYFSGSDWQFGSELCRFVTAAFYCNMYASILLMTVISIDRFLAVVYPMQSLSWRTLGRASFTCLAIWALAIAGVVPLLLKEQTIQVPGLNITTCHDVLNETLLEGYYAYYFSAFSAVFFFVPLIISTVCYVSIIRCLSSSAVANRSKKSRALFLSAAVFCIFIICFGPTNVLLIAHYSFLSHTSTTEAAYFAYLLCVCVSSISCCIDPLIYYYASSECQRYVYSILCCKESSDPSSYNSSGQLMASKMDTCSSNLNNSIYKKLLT
# Condition parameters: read-out: EC50 (concentration required to elicit a 50% maximal aggregation); washed human platelets
Ends that are not written are not given here.
In textbook form, pEC50 equals minus log to base ten of the concentration in mol/L.

GET /values?readout=pEC50&item= "SFLLRNPN" 5.12

Continue with the substance presented below.
GET /values?readout=pEC50&item= SFFLRN-NH2 [SFFLRN-NH2] 5.82
